These entries and their values trace back to the supplement of paper PMC12764529.

- Protocol Description: folding stability dG unfold from chymotrypsin proteolysis; higher = more stable
Reported Property: folding stability dG unfold (kcal/mol)
Numbers only; they are read as kcal/mol.

>>> df
                             sequence_input  value_units  recorded_value
0  SAGMPKTTVETEIRFVETEEGIEAVAEVRTETETRVVVIPGHLGPEEAIEVLEKLLEEEGLELSRVEIGSAG [r5_305_TrMRF]     kcal/mol           0.353
1  SAAVITLETENVTATSTLLEDGSVLVDVVEFYEDGYVSVVKAVIGPDGEIKVVERVVFPVPPPVPPPDASAG [r14_42_TrMRF]     kcal/mol             2.3
2  SAGGSAGGSAGGSGPSVTVSTTTLPPLPVTVETVTVGDTTVLVVFTPEGGSAVVPSGALSAGGSAGGSAGGS [r4_256_JUSTAS]     kcal/mol           0.858
3  SSMSIEIKEVEEDPVGSEAKPRVVREKVTLEGTEVELTVTVTEAPSGETTVTTTLTFPGSGKTFSFTFDTSA [r9_241_JUSTAS]     kcal/mol            3.05
4  SAGGSAGGSAGGMKKGQKFKPVKKVKLRFKVKVKVKVGGKEYEFEAEVELEVEFYVLEDSAGGSAGGSAGGS [r10_758_TrROS_Hall]     kcal/mol            4.41
5  SAGGSPERSAEELAEELAERIRELLREEAASFELPLHVHIVVPDPEGRRREFDVEVHVRVEVPEDARSAGGS [r16_550_TrMRF]     kcal/mol            1.14

// moving on: another record for folding stability dG unfold
Query :: State, in one line, measured folding stability dG unfold of SAGGSAGGSAGGMEYSISNVTTETFPEGNKTVTVETYTFDDGGTITVTKENGKVLEVNPKSAGGSAGGSAGG [r7_552_JUSTAS]
Result :: 0.586

* * *

- Protocol Description: folding stability dG unfold from trypsin proteolysis; higher = more stable
Listed here: items and their measured folding stability dG unfold.
Express the result in kcal/mol but write the number alone.

Record excerpt, results attached:
>>> print(df.to_string())
                             sequence_input  recorded_value
0  SMKPGEKLEIEVEIKVEEEDEEKRKKALEEAEEKLRELFEKLGLKDIKKVEVVEVEKLPDGTVKVKIRIDSA [r9_754_TrROS_Hall]            2.39
1  SAGGSAGGSAGGMIRIVNEETGEEIEISPEELEELLAKSDKPVRIEVDGKVIPLDAKDLSAGGSAGGSAGGS [r10_839_TrROS_Hall]            0.85
2  SAGGSADEELLEKAKEALKKAEPPKIVVLNLPLPSGKELKVTLDPTTNKFTAEFPDGGSKTFDFPESAGGSA [r15_977_JUSTAS]            1.05
3  SAGGSAGGSAMKEYVVASRGYDPATGLYSLTIESSEGKKVKNVTFDDPSNPEKAINEAIAKESAGGSAGGSA [r18_479_JUSTAS]          -0.713
4  SAGGSAGGSISQIKSKIKKILEEKGLKPTKIVIKKTEKLKNKIKVEVEVEIGKGPKISMIIEIESAGGSAGG [r6_841_JUSTAS]            3.89
5  SAGGSAGGSAGMDIPLTFTAPNADGQPVKVRVEKIIPEKGYLLVRVEYPDDREETFLDPFSAGGSAGGSAGG [r11_742_TrMRF]          -0.118

Query :: Query folding stability dG unfold for SAGMKEVTVSKDELEEILKKLPPNKTYKVTLYNPNGPTYEFTVTVENDTIKINEGPPNKSENLKVTLVSSAG [r5_85_JUSTAS]
Result :: 1.53

* * *

- Protocol Description: folding stability dG unfold from chymotrypsin proteolysis; higher = more stable
Below is a list of entries, each paired with its recorded folding stability dG unfold value.
Write the value in kcal/mol as a bare number.

In [3]: df
Out[3]:
                             sequence_input  value_units  recorded_value
0  SAGGSMKTITDPGNLSEEEIKKILSKFPPNTTVTIEFPDATHTVTLNPDKIEISRDPSYPNFRITITISSAG [r5_373_JUSTAS]     kcal/mol            2.01
1  SAGGKKIKITVKELKKKLEEEGYEIEEIEIYNKKTGKKIKTIKEGDVIELPENVKNVVIKVKIKKKKSAGGS [r8_243_TrROS_Hall]     kcal/mol            2.86
2  SAGGSAGGSSAPPGEVRTEAVSLTVRSTVPITYPNSPTTTLSLTTTLTVTLTREVSPVRPEVESAGGSAGGS [r20_14_JUSTAS]     kcal/mol            3.84

Attention now shifts to the item below.
Query :: Return reported folding stability dG unfold. Input sequence: SAGGMKVKVEVEITVNGKLVKKLTVEMSVEELKKLIEELLPPGAKVEVKIVEVKVEEVEVYELPEEEKSAGG [r13_491_TrROS_Hall]
Result :: 2.21

* * *

- Protocol Description: folding stability dG unfold from chymotrypsin proteolysis; higher = more stable
Reported Property: folding stability dG unfold (kcal/mol)
Give the value, in units of kcal/mol, as a plain number.

Example entries and their recorded answers appear below.
In [3]: df
Out[3]:
                             sequence_input            reported_property  recorded_value
0  SAGGENYTFEMEITIPIPLPNPNGKLKKLPIKVPIEYEYDDPAQRNQAMQNMIMRIIDLALKELGVPSAGGS [r16_339_TrROS]  folding stability dG unfold            2.12
1  SAGGSAGGSAGDKPITIFIPGTPDDIKDYIEDEGFKIKDIEIQYHKNKDGKYWVMVTIRVSAGGSAGGSAGG [r11_632_TrROS]  folding stability dG unfold            3.33
2  SAGGSKVTLEVNEDGTVTLTVTRPDGKKVTLTITKNEDGTYTIRDEETGKTITVPAGMSIEELLKASAGGSA [r2_338_TrROS_Hall]  folding stability dG unfold            5.17
3  SAGGSAGGSAIADEFAEKNPNFQVEVERHTFEMTQYDPDGGWRQHRMFMISITIVPPGDPLSAGGSAGGSAG [r3_358_TrROS]  folding stability dG unfold            4.07
4  SAGGSAGGSRIIFRIPPEFRENMPIEEIVEEFLPPGMPVEIEWERTPDPWYVTVDIEIPPGQLSAGGSAGGS [r12_716_TrROS]  folding stability dG unfold           0.325
5  SAGGPDWQTIRITFWFDSPEDAEEEVRNIARTMGLPPEGIKVEITDFEPREVNGKNYYMVEAEITIPSAGGS [r16_240_TrROS]  folding stability dG unfold            4.27

Please find the next sequence below.
Query :: Please look at this sequence and report its folding stability dG unfold: SAGGYYIEFRNPNNGNTVTIPPELIEAIKSGDPDKLKKLPPWFRDALDNIDRVEIQPPPPVPPVPPGKSAGG [r13_233_TrROS]
Result :: 0.958

* * *

Listing of entries alongside the reported folding stability dG unfold.
- Protocol Description: folding stability dG unfold (combined trypsin and chymotrypsin); higher = more stable
Express it in kcal/mol; write the number only.

Query :: For the sequence SAGGSAGGSAGGKIEIKTFPDGYVLAKIEFPDEDKALVILAKVKPNPGKVLEAIIRPADSAGGSAGGSAGGS [r10_613_TrMRF] , give its measured folding stability dG unfold value.
Result :: 1.38

Query :: Tell me its folding stability dG unfold given SAGGSAGGKKKYLVKITIKYVDKKTGKLVKEETITVEVSEEELEELLKKLPPGAEITKIEIYKLSAGGSAGG [r6_776_TrROS_Hall] as the entry.
Result :: 3.4

Query :: Determine from records and report folding stability dG unfold for SAGGSAGGSAGGKKPVKITEIHRNPGPNWIRIRIPGNGRPIPIPVPPGKKLTLEDALDFSAGGSAGGSAGGS [r10_844_TrROS]
Result :: -0.304

* * *

- Protocol Description: folding stability dG unfold from trypsin proteolysis; higher = more stable
// NOT MET strictly below 2 kcal/mol in folding stability dG unfold; MET otherwise

These solved cases illustrate the format of a correct answer.
In [3]: df
Out[3]:
                             sequence_input  class_name
0  SAGGSMSESEVVEVTVGGKPVTITVHREDNRYSAEVTLPPGVRVVLPFGGPESPEKAVEEAVRALESAGGSA [r2_92_JUSTAS]     NOT MET
1  SAGGSAGGSKGVKELVIVVPPDKPEKIEEFLKKLRDEYAKDIKVLEVKETPDGGYIAKIKITDSAGGSAGGS [r12_91_TrMRF]     NOT MET

Query :: // inclusive: folding stability dG unfold at least 2 kcal/mol? input: SAGGSAMTVVKVTLKSPSGTTTVTLPAEEWERFLAAPEVSKTWTLTEVVEEEEPPPELDPEAVELGSAGGSA [r15_460_JUSTAS]
Result :: NOT MET

Query :: State whether the measured folding stability dG unfold reaches 2 kcal/mol, counting equality as reaching it, for SASLEPVATTAVPLPDGTTATLTLYRDPATGRYTVRVTVTHPDGAAETRVLEVDSEEEALSRVVLSPGASAG [r14_749_JUSTAS]
Result :: MET

Query :: Assess whether reported folding stability dG unfold for SAGMKVILIIAPEEKIEEIFEEIKKIAEEHGLDLKLDKIEPLPEKGYLVIVTVKNPESDETTVILVLVPSAG [r5_41_TrMRF] sits at 2 kcal/mol or higher.
Result :: MET
